# System: SK-MEL-28
# procedure-summary: NCI tumour cell line growth inhibition, 48 h
Calls of active or inactive are those of the source. No stated cut-off is given here; in the data, active = GI50 up to about 1.1 µM and inactive = higher.
parameter-measured: GI50

Worked cases, answers included:
| compound | GI50 |
| --- | --- |
| C[n+]1c(-c2ccc(/C=N/NC(=O)c3ccc(C(=O)N/N=C/c4ccc(-c5cn6ccccc6[n+]5C)cc4)cc3)cc2)cn2ccccc21 | > 100 µM (inactive) |
| CC(=O)Nc1ccc(S(=O)(=O)N=S(C)C)cc1 | > 100 µM (inactive) |
| O=c1c2ccccc2n2n1Cc1ccccc1C2 | > 100 µM (inactive) |

Batch request: GI50 per item, same order as input.
1. Cc1ccc2oc(=O)c(-c3ccccc3)nc2c1
2. CN(C)c1ccc(C2SCC(=O)N2c2nc3cc4sc(N5C(=O)CSC5c5ccc(N(C)C)cc5)nc4cc3s2)cc1 (stereo not given)

Result string:
50.4 µM (inactive)
> 72.8 µM (inactive)

---

Kindly state GI50 for each of the entries shown.
# System: IGROV-1
# procedure-summary: NCI tumour cell line growth inhibition, 48 h
Active and inactive are the calls of the source. Cut-off read from the data, not from the text of the source: active = GI50 up to about 1.1 µM and inactive = higher.

Known results for compounds:
| compound | parameter-measured | result |
| --- | --- | --- |
| CC1CC/C(=C\c2ccc(F)cc2)C2=C1C(c1ccc(F)cc1)n1c(s/c(=C\c3ccc(Cl)cc3)c1=O)=N2 (centres undefined) | GI50 | > 100 µM (inactive) |
| CCC(Sc1cc(Cl)c(C)cc1S(=O)(=O)Nc1nc(N)nc(N(C)C)n1)C(=O)O (centres undefined) | GI50 | > 10 µM (inactive) |

Consider the following items and state reported GI50 for each.
1. Nc1nc(Cl)cc(NCC2(CO)CCC(OCc3ccccc3)C2)n1 (centres undefined)
2. O=C(O)c1ccccc1/N=N/c1ccc2oc(=O)c(C(=O)Nc3ccccc3)cc2c1
3. CN(C)c1ccc(/C=C/c2ccnc3ccc4ccccc4c23)cc1
4. CC1=C(C(=O)Nc2cccc(C(F)(F)F)c2)C(c2ccc(O)cc2)C(C(=O)Nc2cccc(C(F)(F)F)c2)=C(C)N1
5. Nc1ccc(-c2nn3c(COc4ccc(Cl)cc4)nnc3s2)cc1
6. CC(=O)n1nnc2ccc([N+](=O)[O-])cc21

Result string:
1. 18.2 µM (inactive)
2. 46.5 µM (inactive)
3. 12.7 µM (inactive)
4. 15.6 µM (inactive)
5. > 100 µM (inactive)
6. > 100 µM (inactive)

---

# Tested on: OVCAR-3
# procedure-summary: NCI tumour cell line growth inhibition, 48 h
Active and inactive are the calls of the source. Rule as the data show it: active = GI50 up to about 1.1 µM and inactive = higher.
Respond with a class label; see 1.0 for active, 0.0 for inactive

| compound | category |
| --- | --- |
| NC(CCCC(N)P(=O)(O)c1ccccc1)P(=O)(O)c1ccccc1 (stereo unspecified) | 0.0 |
| CCOC(=O)/C(=C/c1ccc(N(C)C)cc1)N(CC)CC | 0.0 |
| CCN(CC)CCCNc1[nH]c2ccccc2c2nc3ccc(OC)cc3c1-2 | 0.0 |

Query string: Name the outcome recorded for `COc1ccc2cc(CNCCCCCCNCc3ccc4cc(OC)ccc4c3)ccc2c1` in the assay.
Result string: 1.0

Query string: # fetch the recorded call for `CS/C=C\C(=O)O[C@H]1C[C@@H]2[C@@H](O)c3occ(C)c3C[C@]2(C)[C@@H](C)C1` here
Result string: 0.0

Query string: # lookup: test call for CC1OC(n2cc(F)c(=O)[nH]c2=O)CCC1O (stereo unspecified)
Result string: 0.0

Query string: What call does the record list for `C#C[C@H](CCCC)OC(=O)N[C@H](C)c1ccccc1` ?
Result string: 0.0

Query string: Recorded call for O=C1C(=O)C2(CC1S(=O)(=O)c1ccccc1)c1ccccc1-c1ccccc12 (stereo unspecified) ?
Result string: 0.0

Query string: For CC1=NN(c2ccccc2)C(=O)C12[C@H](c1ccccc1)C2(C#N)C#N (stereo partly specified) , what call appears in the results of this test?
Result string: 0.0

Query string: // param item: `CCOC(=O)C1=COC(C)(C)CC1=O` ; yields the recorded call
Result string: 0.0

Query string: Which outcome was assigned to CC(C)N(C(=O)C12C3(C(=O)OC(C)(C)C)C4C5(C#N)C3C1(C(=O)OC(C)(C)C)C5C42C(=O)OC(C)(C)C)C(C)C (stereo unspecified) in this test?
Result string: 0.0

Query string: Any idea what this test logged for Nc1nc(Cl)cc(NCC2(CO)CCC(OCc3ccccc3)C2)n1 (stereo unspecified) ?
Result string: 0.0

Query string: # fetch the recorded call for `CC(=O)n1nnc2ccc([N+](=O)[O-])cc21` here
Result string: 0.0

Query string: # fetch the recorded call for CC(ON1[C@](C)(c2ccccc2)CC[C@@]1(C)c1ccccc1)c1ccccc1 (stereo partly specified) here
Result string: 0.0

Query string: // outcome(item) with item = `O=C(/C=C/c1ccccc1)Oc1cccc(O)c1`
Result string: 0.0

Query string: Give the logged outcome of this assay for the following compound: `CC(=O)C(=[N+]=[N-])C(=O)OCCOC(=O)C(=[N+]=[N-])C(C)=O`
Result string: 1.0

Query string: // outcome(item) with item = `Cc1ccc2c(C)c3ccc4ccccc4c3c[n+]2c1.[O-][Cl+3]([O-])([O-])[O-]`
Result string: 0.0

Query string: Each compound tested received a call. Report the one for `COc1cc(/C=C\c2cccnc2)cc(OC)c1OC` .
Result string: 0.0

Query string: Write down the call the test reported for this compound. Item: Cc1c(/N=N/c2ccc(Cl)cc2)c(C)n(C2OC(CO)C(O)C(O)C2O)c(=S)c1C#N (stereo unspecified)
Result string: 0.0

Query string: What did the test return for `COC1(OC)C(N(C)C)=C(Cl)C(=O)/C1=C/C=O` ?
Result string: 0.0

Query string: Short answer needed: outcome of this test for `COc1ccc(/C=c2/s/c(=C(\C#N)c3nc4ccccc4[nH]3)n(-c3ccccc3)c2=O)cc1` ?
Result string: 0.0
